B1: EPB41L3 (parent)
chain: SDYISEFRFAPNHTKELEDKVIEL

# Variants of: B1
# MEASUREMENT_DESCRIPTION: protein stability index of a GFP-peptide fusion (GPS, HEK-293T) (PSI 1-6); higher = more stable;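 also: lentivirally expressed fusions sorted by FACS into six bins by GFP to DsRed ratio, PSI derived from sequencing read proportions per bin multiplied by bin number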
# CONDITION_DESCRIPTION: c terminus: a fixed tail appended
Provide the recorded protein stability index for the entries that follow.
When you answer, write just the number.

Inquiry: For the variant SDYISEFRFAPNHTKQLEDKVIEL [E16Q] , give its measured protein stability index value.
Reply text: 2.3

Inquiry: Provide measured protein stability index value, entry: SDYISEFRFAPNHTKELEDQVIEL [K20Q]
Reply text: 1.89

Inquiry: Provide measured protein stability index value, entry: SDYISEFRFAPNHTKELEDKVEEL [I22E]
Reply text: 2.94

Inquiry: Report measured protein stability index; entry is SPYISEFRFAPNHTKELEDKVIEL [D2P]
Reply text: 2.29

Inquiry: Return value of protein stability index for input SDYISEHRFAPNHTKELEDKVIEL [F7H] , no commentary.
Reply text: 4.26

Inquiry: Provide measured protein stability index value, entry: SDYISEARFAPNHTKELEDKVIEL [F7A]
Reply text: 4.4

Inquiry: Quick one: give measured protein stability index for SDYISEFRFAPNHTKELEDKVQEL [I22Q]
Reply text: 2.92

Inquiry: Output protein stability index of SDYISEFRFAPNHTKELEDKAIEL [V21A]
Reply text: 2.31

Inquiry: State its protein stability index for this variant: SDLISEFRFAPNHTKELEDKVIEL [Y3L]
Reply text: 2.08

Inquiry: Give the reported value of protein stability index for this record: SDYISEFRFAPNHTKELEDKVMEL [I22M]
Reply text: 2.31

Inquiry: For SDYISEFRFAPNHTKEIEDKVIEL [L17I] , write its protein stability index.
Reply text: 2.37

Inquiry: Using known records, supply protein stability index for SDYIKEFRFAPNHTKELEDKVIEL [S5K]
Reply text: 2.75

Inquiry: Give the measured protein stability index for SDYISEFRFAPNHTKELEDKVIEN [L24N]
Reply text: 2.25

Inquiry: Please give measured protein stability index of the following entry: SDYISEFRFAPNHTKELEDKVLEL [I22L]
Reply text: 2.28

Inquiry: Quick one: give measured protein stability index for SDFISEFRFAPNHTKELEDKVIEL [Y3F]
Reply text: 1.91

Inquiry: Give me measured protein stability index, please, for this variant: SDYISEFRFAPNHTKCLEDKVIEL [E16C]
Reply text: 2.17

Inquiry: State its protein stability index for this variant: SDYISEFRFAPNHTKELSDKVIEL [E18S]
Reply text: 2.32

Inquiry: State, in one line, measured protein stability index of SDCISEFRFAPNHTKELEDKVIEL [Y3C]
Reply text: 2.38

Inquiry: Supply recorded protein stability index for SDYISEFRFAPNHTKFLEDKVIEL [E16F] here.
Reply text: 2.81

Inquiry: Name the recorded protein stability index of the item SIYISEFRFAPNHTKELEDKVIEL [D2I] in your answer.
Reply text: 1.9

Inquiry: State its protein stability index: SDYISEFRFAPNHTKELEDKEIEL [V21E]
Reply text: 2.54

Inquiry: Identify measured protein stability index associated with SDYISEFRFAPNHTKELEDKVIRL [E23R]
Reply text: 2.02

Inquiry: Supply reported protein stability index belonging to this variant: SDYISEFRFAPNHTKELEDKVIVL [E23V]
Reply text: 2.38

Inquiry: Could you please provide reported protein stability index for SYYISEFRFAPNHTKELEDKVIEL [D2Y] ? Thanks!
Reply text: 1.75

Inquiry: Quickly give me recorded protein stability index for SDYISRFRFAPNHTKELEDKVIEL [E6R]
Reply text: 2.13

Inquiry: Provide protein stability index value for the following variant: SDYISEFRFFPNHTKELEDKVIEL [A10F]
Reply text: 3.3

Inquiry: Look up and report measured protein stability index for this entry: SDYISEFRFAPNHEKELEDKVIEL [T14E]
Reply text: 2.74

Inquiry: Please look at this variant and report its protein stability index: SDYISEFRFAPNHTKELECKVIEL [D19C]
Reply text: 2.02

Inquiry: Entry SDYISEFRFAPNHTKELEDEVIEL [K20E] needs its protein stability index filled in; supply it.
Reply text: 2.48

Inquiry: For the variant SDYISEFRFAPNHTKELEDKNIEL [V21N] , give its reported protein stability index.
Reply text: 2.38

Inquiry: Fill in protein stability index for record SDRISEFRFAPNHTKELEDKVIEL [Y3R]
Reply text: 2.34

Inquiry: Complete the entry with protein stability index for SDYISEFRFAANHTKELEDKVIEL [P11A]
Reply text: 2.68

Inquiry: Could you please provide reported protein stability index for SDYISEFRFAPNVTKELEDKVIEL [H13V] ? Thanks!
Reply text: 1.59

Inquiry: Quick one: give measured protein stability index for SDYISTFRFAPNHTKELEDKVIEL [E6T]
Reply text: 1.82

Inquiry: Give protein stability index for SDYYSEFRFAPNHTKELEDKVIEL [I4Y]
Reply text: 3.65

Inquiry: Give the reported value of protein stability index for this record: SDYISEFRFAPNHTKELEDKIIEL [V21I]
Reply text: 2.22

Inquiry: Report measured protein stability index; entry is SDYISEFRFAPNHTKELEDHVIEL [K20H]
Reply text: 1.79

Inquiry: Read the entry SDYISMFRFAPNHTKELEDKVIEL [E6M] and write its reported protein stability index.
Reply text: 1.92

Inquiry: In one line, give reported protein stability index of the entry SDYISEFRFAPQHTKELEDKVIEL [N12Q] .
Reply text: 2.35

Inquiry: Check the records and state protein stability index for SDYISEFRFAPNHAKELEDKVIEL [T14A]
Reply text: 2.16

Inquiry: Return the recorded protein stability index value; entry: SDYISEFRFAPNHTKELEDKVIER [L24R]
Reply text: 2.69

Inquiry: Tell me measured protein stability index for SDYISEFRKAPNHTKELEDKVIEL [F9K] please.
Reply text: 4.29

Inquiry: Using the record for SDYISEFRFAPNHTKELTDKVIEL [E18T] , state its measured protein stability index.
Reply text: 1.73

Inquiry: Look up protein stability index of SDYISEFRFAPNHTKELEDSVIEL [K20S] and report it.
Reply text: 2.3

Inquiry: In one line, give reported protein stability index of the entry SDYGSEFRFAPNHTKELEDKVIEL [I4G] .
Reply text: 4.11

Inquiry: Find the measured protein stability index of SDYISEFRFAPNHYKELEDKVIEL [T14Y] and report it.
Reply text: 2.06

Inquiry: Determine its reported protein stability index: SDYISEFRFAPNHTKELPDKVIEL [E18P]
Reply text: 1.47

Inquiry: Complete the entry with protein stability index for SDYISEFRSAPNHTKELEDKVIEL [F9S]
Reply text: 4.79

Inquiry: // fetch protein stability index given entry SDYISEFRFAPNHTKELEDPVIEL [K20P]
Reply text: 2.2

Inquiry: Tell me measured protein stability index for SDYISEFRFAPNHTKELEDKVISL [E23S] please.
Reply text: 2.09

Inquiry: Consider the variant SDYISEFRFAPNTTKELEDKVIEL [H13T] and give its recorded protein stability index.
Reply text: 2.08

Inquiry: Return protein stability index (reported value) for this variant: IDYISEFRFAPNHTKELEDKVIEL [S1I]
Reply text: 1.71

Inquiry: Read off the recorded protein stability index for SDYISEFRFAPNHCKELEDKVIEL [T14C]
Reply text: 2.02

Inquiry: Please report protein stability index for the following variant: SDYISEFRFAPNYTKELEDKVIEL [H13Y]
Reply text: 2.35

Inquiry: Quick one: give measured protein stability index for SDYISESRFAPNHTKELEDKVIEL [F7S]
Reply text: 4.12

Inquiry: Tell us which protein stability index value is on record for SDYISEFVFAPNHTKELEDKVIEL [R8V]
Reply text: 3.39

Inquiry: Consider the variant SDYISWFRFAPNHTKELEDKVIEL [E6W] and give its recorded protein stability index.
Reply text: 2.23

Inquiry: Report measured protein stability index; entry is SDYISEFRFNPNHTKELEDKVIEL [A10N]
Reply text: 3.33

Inquiry: State its protein stability index: SDYISEFRFAPNHTKALEDKVIEL [E16A]
Reply text: 2.56

Inquiry: Give the reported protein stability index for this variant. SDYISEFRFAPNHTKEYEDKVIEL [L17Y]
Reply text: 2.59

Inquiry: Using the record for YDYISEFRFAPNHTKELEDKVIEL [S1Y] , state its measured protein stability index.
Reply text: 2.38

Inquiry: Fill in reported protein stability index for this entry: SDYISLFRFAPNHTKELEDKVIEL [E6L]
Reply text: 1.84

Inquiry: Identify measured protein stability index associated with SDYISEFRFAPNHTKELEHKVIEL [D19H]
Reply text: 1.86

Inquiry: # return recorded protein stability index for entry SDYISEFRFAPNHTKELEDKVICL [E23C]
Reply text: 1.38

Inquiry: // Input: SDYISEFRFAPNATKELEDKVIEL [H13A] . Output its protein stability index only.
Reply text: 2.84

Inquiry: Answer with reported protein stability index of SDYISEGRFAPNHTKELEDKVIEL [F7G]
Reply text: 4.91

Inquiry: Tell me its protein stability index given SDYISEFYFAPNHTKELEDKVIEL [R8Y] as the entry.
Reply text: 3.31

Inquiry: Give a short answer stating reported protein stability index for SDYISVFRFAPNHTKELEDKVIEL [E6V] .
Reply text: 2.06

Inquiry: Entry SDYISEFRFAPNHTEELEDKVIEL [K15E] needs its protein stability index filled in; supply it.
Reply text: 3.46

Inquiry: Entry SDYISEFRFAPNHTFELEDKVIEL [K15F] needs its protein stability index filled in; supply it.
Reply text: 2.15

Inquiry: Quickly give me recorded protein stability index for SDYISECRFAPNHTKELEDKVIEL [F7C]
Reply text: 4.2

Inquiry: Name the recorded protein stability index of the item SDYISEERFAPNHTKELEDKVIEL [F7E] in your answer.
Reply text: 4.96

Inquiry: Identify protein stability index associated with the variant SDYISEFRFACNHTKELEDKVIEL [P11C]
Reply text: 2.12

Inquiry: Supply protein stability index value. Item: SDYISEFRFARNHTKELEDKVIEL [P11R]
Reply text: 2.64

Inquiry: Please supply the value of reported protein stability index for the item SDYISEFRFAPNHTKWLEDKVIEL [E16W]
Reply text: 2.07

Inquiry: Give the measured protein stability index for SDYIEEFRFAPNHTKELEDKVIEL [S5E]
Reply text: 3.79

Inquiry: Tell me protein stability index reported for SDYISEFFFAPNHTKELEDKVIEL [R8F]
Reply text: 2.04

Inquiry: Report protein stability index, nothing else, for this variant: SDYISEFRFAPNHTKPLEDKVIEL [E16P]
Reply text: 1.57

Inquiry: Look up and state reported protein stability index for SDYISEFRFAPNHTKKLEDKVIEL [E16K]
Reply text: 1.77

Inquiry: Please list protein stability index recorded for the variant SDYISEFRFAPNHTKELENKVIEL [D19N]
Reply text: 1.79

Inquiry: Consider the variant LDYISEFRFAPNHTKELEDKVIEL [S1L] . State its measured protein stability index.
Reply text: 2.19

Inquiry: Supply measured protein stability index of SDYISEFRFAPTHTKELEDKVIEL [N12T] in your reply.
Reply text: 2.2

Inquiry: Tell me its protein stability index given SDYRSEFRFAPNHTKELEDKVIEL [I4R] as the entry.
Reply text: 3.13

Inquiry: Item WDYISEFRFAPNHTKELEDKVIEL [S1W] : provide protein stability index
Reply text: 1.76

Inquiry: Give a short answer stating reported protein stability index for STYISEFRFAPNHTKELEDKVIEL [D2T] .
Reply text: 1.95

Inquiry: Check the records and state protein stability index for KDYISEFRFAPNHTKELEDKVIEL [S1K]
Reply text: 1.72

Inquiry: Provide measured protein stability index value, entry: SDYISEFRWAPNHTKELEDKVIEL [F9W]
Reply text: 3.54

Inquiry: Give me measured protein stability index, please, for this variant: SAYISEFRFAPNHTKELEDKVIEL [D2A]
Reply text: 2.21

Inquiry: Provide protein stability index value for the following variant: SDYISEFRFASNHTKELEDKVIEL [P11S]
Reply text: 2.26

Inquiry: Supply protein stability index value. Item: SDYISEFRFAPNRTKELEDKVIEL [H13R]
Reply text: 1.94

Inquiry: Provide protein stability index value for the following variant: SDYISEFRFAPNHTKRLEDKVIEL [E16R]
Reply text: 2.66
